Values compiled from paper PMC2248166.

testSystem: HLA A*3201 (Homo sapiens, UniProt P04439, A270S/D101S/D185E/E176V/E277Q/F133L/G103R/G107R/G231S/H175R/I121M/I218V/I322F/K168Q/L105A/L300P/L318F/M331R/P208A/P217A/Q94H/R106L/R138Q/S129P/T104I/T323A/T345S/V100E/V321M/V358M)
experimentalDetails: biochemical
Assay type: binding
Where a SMILES comes first, the peptide text is derived from it.
Quick reference for IC50 among some compounds
Field: numeric (nM). Do not append units.

Use these answered entries as a reference point.
1. CC[C@H](C)[C@H](NC(=O)[C@@H](NC(=O)[C@H](Cc1c[nH]cn1)NC(=O)[C@H](CCCNC(=N)N)NC(=O)[C@H](CC(C)C)NC(=O)[C@@H](NC(=O)[C@H](Cc1ccccc1)NC(=O)[C@H](CCSC)NC(=O)[C@@H](N)CO)[C@@H](C)O)[C@@H](C)CC)C(=O)O [3102.0752] (H-SMFTLRHII-OH): 83
2. CC[C@H](C)[C@H](N)C(=O)N[C@H](C(=O)N[C@@H](Cc1ccc(O)cc1)C(=O)N[C@@H](CO)C(=O)N[C@@H](CC(C)C)C(=O)N[C@H](C(=O)N[C@H](C(=O)N[C@H](C(=O)N[C@H](C(=O)O)[C@@H](C)CC)[C@@H](C)O)[C@@H](C)O)C(C)C)C(C)C [3102.0292] (H-IVYSLVTTI-OH): 3.6
3. CC[C@H](C)[C@H](NC(=O)[C@H](CCCNC(=N)N)NC(=O)[C@H](Cc1ccc(O)cc1)NC(=O)[C@H](CCSC)NC(=O)[C@H](CO)NC(=O)[C@@H](N)CCCNC(=N)N)C(=O)N1CCC[C@H]1C(=O)N1CCC[C@H]1C(=O)N[C@@H](Cc1ccccc1)C(=O)O [3102.0766] (H-RSMYRIPPF-OH): 0.73

Value of IC50 reported for the compound CC[C@H](C)[C@H](NC(=O)[C@@H](NC(=O)[C@@H](N)CCCCN)[C@@H](C)O)C(=O)N[C@@H](Cc1ccccc1)C(=O)N[C@@H](CC(C)C)C(=O)N[C@@H](CO)C(=O)N[C@@H](CCC(=O)O)C(=O)N1CCC[C@H]1C(=O)N[C@@H](Cc1ccc(O)cc1)C(=O)O [3102.0457] (H-KTIFLSEPY-OH) is 2.9

Sample CC[C@H](C)[C@H](NC(=O)[C@H](CC(=O)O)NC(=O)[C@H](CC(C)C)NC(=O)[C@@H](NC(=O)[C@@H](N)CC(C)C)[C@@H](C)O)C(=O)N[C@@H](Cc1ccccc1)C(=O)N[C@@H](Cc1ccc(O)cc1)C(=O)N[C@@H](CC(C)C)C(=O)N[C@@H](Cc1ccccc1)C(=O)O [3102.0354] (H-LTLDIFYLF-OH) ; IC50 observed: 4.4

The compound listed as CC[C@H](C)[C@H](NC(=O)[C@H](CO)NC(=O)[C@H](CC(C)C)NC(=O)[C@@H](NC(=O)[C@H](Cc1ccccc1)NC(=O)[C@H](CC(N)=O)NC(=O)[C@H](CCC(=O)O)NC(=O)[C@@H](NC(=O)[C@@H](N)CCCNC(=N)N)[C@@H](C)O)C(C)C)C(=O)O [3102.0421] (H-RTENFVLSI-OH) has a reported IC50 of 1.6

IC50 reported for this compound CC[C@H](C)[C@H](NC(=O)[C@H](Cc1ccccc1)NC(=O)[C@@H](NC(=O)[C@@H](NC(=O)[C@@H](N)CO)[C@@H](C)CC)[C@@H](C)CC)C(=O)N[C@@H](CC(N)=O)C(=O)N[C@@H](Cc1ccc(O)cc1)C(=O)N[C@H](C(=O)N[C@@H](CCSC)C(=O)O)[C@@H](C)O [3102.0303] (H-SIIFINYTM-OH) : 6.5
